I'd be grateful if you could share measured pEC50 for these entries.
- study-target: UniProt Q9XUB2
- Sequence (Q9XUB2 whole entry): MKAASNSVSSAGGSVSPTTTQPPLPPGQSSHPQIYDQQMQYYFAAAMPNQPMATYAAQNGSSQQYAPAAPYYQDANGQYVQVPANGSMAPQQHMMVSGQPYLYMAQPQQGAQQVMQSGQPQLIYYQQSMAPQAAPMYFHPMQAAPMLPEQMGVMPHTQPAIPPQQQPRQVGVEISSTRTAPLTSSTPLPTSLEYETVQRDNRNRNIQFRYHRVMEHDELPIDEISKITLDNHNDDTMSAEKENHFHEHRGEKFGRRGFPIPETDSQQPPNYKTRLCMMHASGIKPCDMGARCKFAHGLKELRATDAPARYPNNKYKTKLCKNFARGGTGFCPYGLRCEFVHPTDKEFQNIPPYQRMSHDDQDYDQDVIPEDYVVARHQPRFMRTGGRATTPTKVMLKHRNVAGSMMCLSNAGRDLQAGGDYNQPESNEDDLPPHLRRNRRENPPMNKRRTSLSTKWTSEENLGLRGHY
- measurement-protocol: MEX-5/TCR-2 RNA interaction inhibitors, dose response, biochemical, C. elegans, fluorescence polarization (AID 1960)
pEC50: −log10 of the molar value.

Please review the following examples before continuing.
COc1cc(C2NC(=S)N=C(C)C2C(=O)OC(C)C)ccc1OC(C)C (stereo unspecified) | < 3.52
Cc1c(NC=C2C(=O)NC(=O)N(Cc3ccccc3)C2=O)c(=O)n(-c2ccccc2)n1C | < 3.52
Cc1ccc(-c2c(CCC(C)N=O)oc3ccc(Cl)cc23)o1 (stereo unspecified) | < 3.52

Please report pEC50 for every entry that follows.
1. O=CC(C=Nc1ccccn1)c1nc2ccccc2o1 (stereo unspecified)
2. O=C(Cc1nc2cc([N+](=O)[O-])ccc2[nH]c1=O)c1ccccc1
3. NC(=O)c1ccccc1N=CCC(=O)c1ccc(F)cc1

Found:
< 3.52
< 3.52
< 3.52
